Origin of measurements: ChEMBL document CHEMBL1268934

Target Or Test System: GABA-A receptor; alpha-3/beta-3/gamma-2 (Homo sapiens, UniProt P18507+P28472+P34903)
Sequence (P18507 whole entry): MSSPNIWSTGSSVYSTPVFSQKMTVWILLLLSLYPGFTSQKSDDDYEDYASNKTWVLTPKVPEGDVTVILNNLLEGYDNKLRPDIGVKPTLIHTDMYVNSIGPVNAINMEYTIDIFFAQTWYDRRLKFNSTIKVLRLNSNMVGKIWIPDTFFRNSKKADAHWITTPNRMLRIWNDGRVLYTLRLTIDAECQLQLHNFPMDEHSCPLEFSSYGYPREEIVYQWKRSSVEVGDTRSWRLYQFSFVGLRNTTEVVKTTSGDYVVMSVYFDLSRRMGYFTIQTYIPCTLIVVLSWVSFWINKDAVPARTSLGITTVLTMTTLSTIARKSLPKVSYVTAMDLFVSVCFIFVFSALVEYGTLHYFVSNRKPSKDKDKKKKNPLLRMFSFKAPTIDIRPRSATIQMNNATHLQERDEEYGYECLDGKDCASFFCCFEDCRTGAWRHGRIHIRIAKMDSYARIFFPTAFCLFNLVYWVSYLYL
Sequence (P28472 whole entry): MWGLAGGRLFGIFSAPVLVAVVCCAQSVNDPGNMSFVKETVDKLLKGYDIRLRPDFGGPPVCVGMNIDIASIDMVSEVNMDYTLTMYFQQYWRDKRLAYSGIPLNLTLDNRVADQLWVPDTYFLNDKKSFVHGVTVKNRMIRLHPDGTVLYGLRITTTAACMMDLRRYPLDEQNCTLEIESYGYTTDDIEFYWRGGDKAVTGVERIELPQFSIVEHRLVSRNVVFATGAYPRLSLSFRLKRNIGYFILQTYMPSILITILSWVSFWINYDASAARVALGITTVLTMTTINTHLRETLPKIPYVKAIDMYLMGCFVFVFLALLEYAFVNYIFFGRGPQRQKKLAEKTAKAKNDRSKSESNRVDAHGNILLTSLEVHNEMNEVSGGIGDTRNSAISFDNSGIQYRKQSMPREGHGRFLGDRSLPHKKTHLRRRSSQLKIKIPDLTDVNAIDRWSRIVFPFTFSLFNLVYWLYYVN
Sequence (P34903 whole entry): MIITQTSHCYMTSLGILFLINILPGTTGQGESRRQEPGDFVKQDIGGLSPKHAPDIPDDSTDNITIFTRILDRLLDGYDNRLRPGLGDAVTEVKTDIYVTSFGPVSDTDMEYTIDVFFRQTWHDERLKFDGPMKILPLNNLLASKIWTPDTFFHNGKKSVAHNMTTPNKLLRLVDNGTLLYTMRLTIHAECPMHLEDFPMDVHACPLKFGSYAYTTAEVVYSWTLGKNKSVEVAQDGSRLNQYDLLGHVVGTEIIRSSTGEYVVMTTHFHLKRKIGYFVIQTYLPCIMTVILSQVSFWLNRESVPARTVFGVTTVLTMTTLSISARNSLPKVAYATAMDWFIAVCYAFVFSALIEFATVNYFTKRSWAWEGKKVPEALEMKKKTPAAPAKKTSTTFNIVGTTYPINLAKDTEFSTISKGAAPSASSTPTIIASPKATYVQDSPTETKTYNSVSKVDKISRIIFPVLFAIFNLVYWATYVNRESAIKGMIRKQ
Protocol Text: Displacement of [3H]flunitrazepam from human recombinant GABAA alpha-3-beta-3-gamma-2 receptor expressed in HEK cells by liquid scintillation counting
Value Kind: pKi
The meaning of pKi here: minus log10 of the concentration in molar units.

Recorded results for 6 compounds are shown here.
- Compound: "CCC(C)OC(=O)c1cc2c(cn1)[nH]c1ccccc12 (stereo not drawn)"
  pKi: 6.94
- Compound: "CC/C=C/C=C/Oc1cc2c(cn1)[nH]c1ccccc12"
  pKi: 6.07
- Compound: "O=C(OCC(Cl)(Cl)Cl)c1cc2c(cn1)[nH]c1ccccc12"
  pKi: 7.37
- Compound: "CCOC(=O)c1cc2c(cn1)[nH]c1ccc(I)cc12"
  pKi: 7.47
- Compound: "CC(C)(C)OC(=O)c1cc2c(cn1)[nH]c1ccc(C#Cc3ccc4[nH]c5cnc(C(=O)OC(C)(C)C)cc5c4c3)cc12"
  pKi: 7.00
- Compound: "CC(C)(C)OC(=O)c1cc2c(cn1)[nH]c1ccc(I)cc12"
  pKi: 6.91

Lab note: measured pKi of CC(C)(C)OC(=O)c1cc2c(cn1)[nH]c1ccc(C(C)(C)C)cc12 was 7.61

Lab note: measured pKi of O=C(OCC(F)(F)F)c1cc2c(cn1)[nH]c1ccc(-c3cccs3)cc12 was 7.14
